Data origin, for the record: patent US20210309631A1

- assay-summary: solubility in water
- Assay type: physicochemical
observation-type: solubility

Data request: // Input: CN(C)C(=O)N[C@H]1CC[C@H](CCN2CCN(c3cccc4ccsc34)CC2)CC1.O=C(O)/C=C\C(=O)O [Example 5] . Output its solubility only.
Data returned: > 2600 µg/mL

====

- assay-summary: In vivo individual difference analysis: individual plasma concentration versus time in rats (Example 8)
- Parameters: species or system SD rats
- condition: male, SD, rat, plasma, oral, 1 mg/kg, intragastric 1 mg/kg, 0 h after administration, rat 1♂, read-out: Plasma Concentrations of Compound of Formula I
observation-type: concentration at 0 h (ng/mL)
// return numeric value only (unit: ng/mL, not printed)

Data request: Determine from records and report concentration at 0 h for CN(C)C(=O)N[C@H]1CC[C@H](CCN2CCN(c3cccc4ccsc34)CC2)CC1
Data returned: 0
